# PROTOCOL SUMMARY: cytotoxicity in HPDE-C7 cells, cell-based, fluorescence, HTS (AID 430);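 note: cells exposed to compound for 48 hours before viability readout; 0% = vehicle and 100% = reference cytotoxic drug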
# CONDITION SET: HPDE-C7 pancreatic duct cells viability, at 10 µM, stronger effect = higher value
Screen size: about 63,000 compounds; about 1,100 (1.7%) were called active. Shown is part of a subset that was picked to be rich in actives. Measured potencies and affinities stand elsewhere.
Listed molecules paired with reported cytotoxicity
Kindly answer with a numeric value in %, unit omitted.

Sample answers from the record:
{"MOLECULE": "CC(C)=C(C#N)c1nc2ccccc2s1", "UNIT ABBREV": "%", "cytotoxicity": -8.8}
{"MOLECULE": "N#C/C(=C(/O)CN1CCOCC1)c1nc2ccccc2s1", "UNIT ABBREV": "%", "cytotoxicity": 1.3}

Query: For COCCCNC(=O)c1c(N)n(/N=C/c2ccccn2)c2nc3ccccc3nc12 , what is its reported cytotoxicity?
Reply: 22

Query: For COC(=O)c1ccc(/C(O)=C(\C#N)c2nc3ccccc3s2)cc1 , what is its reported cytotoxicity?
Reply: 58.4

Query: For O=C(C1CCN(S(=O)(=O)c2ccc(Br)s2)CC1)N1CCc2ccccc21 , what is its reported cytotoxicity?
Reply: 10.9

Query: For Cc1ccc(SC/C(O)=C(\C#N)c2nc3ccccc3s2)cc1 , what is its reported cytotoxicity?
Reply: 79.2

Query: For O=C1CC(C(F)(F)C(F)(F)C(F)(F)C(F)F)=Nc2ccccc2N1 , what is its reported cytotoxicity?
Reply: -21.9

Query: For CCOC(=O)N1CCC(N2CCN(S(=O)(=O)c3ccc(NC(C)=O)cc3)CC2)CC1 , what is its reported cytotoxicity?
Reply: -12.8

Query: For CCCCNC(=O)c1c(N)n(/N=C/c2ccccn2)c2nc3ccccc3nc12 , what is its reported cytotoxicity?
Reply: 50.5

Query: For COc1ccccc1NC(=O)C1=C(C)NC(SCC(=O)c2ccccc2)=C(C#N)C1c1ccco1 (stereo unspecified) , what is its reported cytotoxicity?
Reply: 33.9

Query: For O=C(Cc1ccc(-c2ccccc2)cc1)NCCN1CCOCC1 , what is its reported cytotoxicity?
Reply: -11.8

Query: For Cc1ccc2nc3ccc(N4CCCC4)nn3c(=O)c2c1 , what is its reported cytotoxicity?
Reply: 4.6

Query: For O=C(NC(C(=O)c1ccccc1)n1ccc(=O)[nH]c1=O)c1ccccc1 (stereo unspecified) , what is its reported cytotoxicity?
Reply: 23.4

Query: For CCC(C)NC(=O)c1c(N)n(/N=C/c2cccnc2)c2nc3ccccc3nc12 (stereo unspecified) , what is its reported cytotoxicity?
Reply: 41.4

Query: For CCOC(=O)C1=C(c2ccccc2)NC(SCC(=O)Nc2ccccc2C)=C(C#N)C1c1ccco1 (stereo unspecified) , what is its reported cytotoxicity?
Reply: 32.9

Query: For CC1=C(C(=O)Nc2ccccc2)C(c2ccco2)C(C#N)=C(SCC(=O)OC(C)C)N1 (stereo unspecified) , what is its reported cytotoxicity?
Reply: 42.1

Query: For CC(C)OCCCNC(=O)c1c(N)n(/N=C/c2ccccn2)c2nc3ccccc3nc12 , what is its reported cytotoxicity?
Reply: 28.4

Query: For COCCCn1c(=S)[nH]c2ccc(N3CCOCC3)cc2c1=O , what is its reported cytotoxicity?
Reply: -10.8

Query: For COCCNC(=O)c1c(N)n(/N=C/c2cccs2)c2nc3ccccc3nc12 , what is its reported cytotoxicity?
Reply: 42.8

Query: For CC1=C(C(=O)Nc2ccccc2)C(c2ccco2)C(C#N)=C(SCc2ccccc2)N1 (stereo unspecified) , what is its reported cytotoxicity?
Reply: 63.1

Query: For CCOC(=O)CSC1=C(C#N)C(c2ccco2)C(C(=O)Nc2cccc(C(F)(F)F)c2)=C(C)N1 (stereo unspecified) , what is its reported cytotoxicity?
Reply: 12.4
